Numbers sourced from patent US20080249033A1.

Let's go through some recorded MIC values for H. influenzae ATCC 0529 together.

Consider the worked cases shown below.
[[record]]
molecule = "CC[C@H]1OC(=O)[C@H](C)[C@@H](O[C@H]2C[C@@](C)(OC)[C@@H](OC(=O)NCCOCCOCCCc3ccc4c(c3)c(=O)c(C(=O)O)cn4CC)[C@H](C)O2)[C@H](C)[C@@H](O[C@@H]2O[C@H](C)CC(N(C)C)[C@H]2O)[C@](C)(O)C[C@@H](C)CN(C)[C@H](C)[C@@H](O)[C@]1(C)O (stereo partly shown)"
recorded_value = "≤ 0.125 mg/L"

[[record]]
molecule = "CC[C@H]1OC(=O)[C@H](C)[C@@H](O[C@H]2C[C@@](C)(OC)[C@@H](OC(=O)NCCOCCOCC#Cc3ccc4c(c3)c(=O)c(C(=O)O)cn4CC)[C@H](C)O2)[C@H](C)[C@@H](O[C@@H]2O[C@H](C)CC(N(C)C)[C@H]2O)[C@](C)(O)C[C@@H](C)CN(C)[C@H](C)[C@@H](O)[C@]1(C)O (stereo partly shown)"
recorded_value = "≤ 0.125 mg/L"

[[record]]
molecule = "CC[C@H]1OC(=O)[C@H](C)[C@@H](OC2C[C@@](C)(OC)[C@@H](OC(=O)NCCOCCOCCNc3cc4c(=O)c(C(=O)O)cn(C5CC5)c4cc3Cl)[C@H](C)O2)[C@H](C)[C@@H](OC2O[C@H](C)C[C@H](N(C)C)[C@H]2O)[C@](C)(OC)C[C@@H](C)C(=O)[C@H](C)[C@@H](O)[C@]1(C)O (stereo partly shown)"
recorded_value = "≤ 2 mg/L"


Here is another molecule to look at.
Using the record for CC[C@H]1OC(=O)[C@H](C)[C@@H](OC2C[C@@](C)(OC)[C@H](OC(=O)NCCOCCOCCNc3cc4c(=O)c(C(=O)O)cn(C5CC5)c4cc3Cl)[C@@H](C)O2)[C@H](C)[C@@H](O[C@@H]2O[C@H](C)CC(N(C)C)[C@H]2O)[C@](C)(O)C[C@@H](C)CN(C)[C@H](C)[C@@H](O)[C@]1(C)O (stereo partly shown) , report its MIC.
≤ 2 mg/L
